- system.tested: IDO (SKOV3 human ovarian adenocarcinoma cells, IFN-γ induced) (Homo sapiens)
- Construct: IDO expression was induced in the SKOV3 cells by the addition of 500 ng/ml IFN-γ; endogenous in cells; host or cells: SKOV3 human ovarian adenocarcinoma cells, induced with IFN-γ
- Sequence (P14902 whole entry): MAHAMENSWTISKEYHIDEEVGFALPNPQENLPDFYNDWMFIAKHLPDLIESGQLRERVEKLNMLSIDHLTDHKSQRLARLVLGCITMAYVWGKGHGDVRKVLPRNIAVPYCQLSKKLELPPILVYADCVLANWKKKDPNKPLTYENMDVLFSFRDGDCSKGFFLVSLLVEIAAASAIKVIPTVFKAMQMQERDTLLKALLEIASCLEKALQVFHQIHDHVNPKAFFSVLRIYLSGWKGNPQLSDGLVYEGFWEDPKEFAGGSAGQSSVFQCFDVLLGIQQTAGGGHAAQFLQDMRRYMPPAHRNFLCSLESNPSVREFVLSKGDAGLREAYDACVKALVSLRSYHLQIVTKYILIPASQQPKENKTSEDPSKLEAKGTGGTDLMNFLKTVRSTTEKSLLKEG
- test.name: SKOV3 Kynurenine cell based assay
- measurement.parameters: IDO induced by 500 ng/ml IFN-γ, 500 μM L-tryptophan, 48 hours
recorded.endpoint: SKOV3 Kynurenine cell based assay pIC50

Some compounds with known SKOV3 Kynurenine cell based assay pIC50 results, for comparison:
{"compound": "COCC(=O)N1CCC(c2c[nH]c3ccccc23)CC1 [Compound 84]", "recorded.measurement": "+− (+− = pIC50 <4.00)"}
{"compound": "O=C(c1ccccc1)N1CCC(c2c[nH]c3ccccc23)CC1 [Compound 82]", "recorded.measurement": "+− (+− = pIC50 <4.00)"}
{"compound": "CS(=O)(=O)N1CCC(C2C(=O)Nc3ccc(C(F)(F)F)cc32)CC1 (centres unmarked) [Compound 310]", "recorded.measurement": "+ (+ = pIC50 4.00-4.99)"}
{"compound": "O=S(=O)(c1ccccc1OC(F)(F)F)N1CCC(c2c[nH]c3ccc(F)cc23)CC1 [Compound 51]", "recorded.measurement": "+ (+ = pIC50 4.00-4.99)"}

Now examine the next entry.
Input: Which SKOV3 Kynurenine cell based assay pIC50 value is on record for CS(=O)(=O)N1CCN(c2c[nH]c3ccccc23)CC1 [Compound 108] ?
Output: +− (+− = pIC50 <4.00)

###

- system.tested: Recombinant human IDO (Homo sapiens, UniProt P14902)
- Sequence (P14902 whole entry): as above
- test.name: hIDO biochemical coupled assay
- measurement.parameters: 45 μM L-tryptophan, coupled with kynurenine formamidase
recorded.endpoint: hIDO biocehmical assay pIC50

{"given.smiles": "O=C(CO)N1CCC(c2c[nH]c3ccccc23)CC1", "hIDO biocehmical assay pIC50": "+− (+− = pIC50 <4.00)"}
{"given.smiles": "CC(=O)N1CC=C(c2c[nH]c3ccc(C)cc23)CC1", "hIDO biocehmical assay pIC50": "+− (+− = pIC50 <4.00)"}
{"given.smiles": "FC(F)(F)CN1CCC(c2c[nH]c3ccccc23)CC1", "hIDO biocehmical assay pIC50": "+− (+− = pIC50 <4.00)"}
{"given.smiles": "CS(=O)(=O)N1CC=C(c2c[nH]c3cc(F)c(F)cc23)CC1", "hIDO biocehmical assay pIC50": "+− (+− = pIC50 <4.00)"}
{"given.smiles": "Cc1ccc(S(=O)(=O)N2CCC(c3c[nH]c4ccccc34)CC2)c(C)c1", "hIDO biocehmical assay pIC50": "+− (+− = pIC50 <4.00)"}

Input: Which hIDO biocehmical assay pIC50 value is on record for Cc1cc(S(=O)(=O)N2CCC(c3c[nH]c4ccc(F)cc34)CC2)c(Cl)cc1Cl ?
Output: +− (+− = pIC50 <4.00)

Input: Record: COc1cccc2[nH]cc(C3=CCN(C(C)=O)CC3)c12
Output: +− (+− = pIC50 <4.00)

Input: Record: CC(=O)N1CC=C(c2n[nH]c3ccccc23)CC1
Output: +− (+− = pIC50 <4.00)

Input: Record: CS(=O)(=O)N1CC=C(c2c[nH]c3ccncc23)CC1
Output: +− (+− = pIC50 <4.00)
